This listing pairs molecules with measured viability, T/C.
# Test system: 192522-019-R-J2-PDC complex tumor spheroid viability
# Assay details: Anticancer human tumor 192522-019-R-J2-PDC patient-derived colon adenocarcinoma cell line growth inhibition [POLQ]
# Applied conditions: second compound 10 µM; first compound 0.0316 µM; stronger effect = lower value
Endpoint name: viability, T/C (%)

- CC[C@@]1(O)C(=O)OCc2c1cc1n(c2=O)Cc2cc3c(CN(C)C)c(O)ccc3nc2-1 + Nc1ccc(C#CCN(C(=O)Cc2ncc(C(F)(F)F)cc2C(F)(F)F)c2ccc(F)cc2)nn1: 92.3
- CCCS(=O)(=O)Nc1ccc(F)c(C(=O)c2c[nH]c3ncc(-c4ccc(Cl)cc4)cc23)c1F + Nc1ccc(C#CCN(C(=O)Cc2ncc(C(F)(F)F)cc2C(F)(F)F)c2ccc(F)cc2)nn1: 105
- Cn1ncnc1[C@H]1c2n[nH]c(=O)c3cc(F)cc(c23)N[C@@H]1c1ccc(F)cc1 + COC1C(OC(N)=O)C(O)C(Oc2ccc3c(O)c(NC(=O)c4ccc(O)c(CC=C(C)C)c4)c(=O)oc3c2C)OC1(C)C: 107
- O=c1[nH]cc(F)c(=O)[nH]1 + COC1C(OC(N)=O)C(O)C(Oc2ccc3c(O)c(NC(=O)c4ccc(O)c(CC=C(C)C)c4)c(=O)oc3c2C)OC1(C)C: 92.8
- CC[C@@]1(O)C(=O)OCc2c1cc1n(c2=O)Cc2cc3c(CN(C)C)c(O)ccc3nc2-1 + Cc1cccc(N(C)C(=O)C2C(O)CCN2c2nc(C)cc(C(F)(F)F)c2C#N)c1: 95.3

----------
# Tested on: 192522-019-R-J2-PDC complex tumor spheroid viability
# Assay details: Anticancer human tumor 192522-019-R-J2-PDC cell line growth inhibition [POLQ];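 note: spheroids exposed to drugs for seven days before reading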;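 for viability, T/C: 100% = DMSO vehicle control viability in luminescence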
# Applied conditions: second compound 3.16 µM; first compound 10 µM; stronger effect = lower value
Endpoint name: viability, T/C (%)

* CCc1cc2c(N3CCc4c(cc(Cn5ccnc5)cc4-c4cn(C)nc4C(F)(F)F)C3=O)ccnc2c(OC)n1 + COC1C(OC(N)=O)C(O)C(Oc2ccc3c(O)c(NC(=O)c4ccc(O)c(CC=C(C)C)c4)c(=O)oc3c2C)OC1(C)C | 68.3
* CCc1cc2c(N3CCc4c(cc(Cn5ccnc5)cc4-c4cn(C)nc4C(F)(F)F)C3=O)ccnc2c(OC)n1 + Nc1ccc(C#CCN(C(=O)Cc2ncc(C(F)(F)F)cc2C(F)(F)F)c2ccc(F)cc2)nn1 | 75.8
* CC1COCCN1c1cc(C2(O)CC3CCC(C2)O3)c2cnn(-c3ccn[nH]3)c2n1 (stereo unspecified) + COC1C(OC(N)=O)C(O)C(Oc2ccc3c(O)c(NC(=O)c4ccc(O)c(CC=C(C)C)c4)c(=O)oc3c2C)OC1(C)C | 49.1
* O=c1[nH]cc(F)c(=O)[nH]1 + Nc1ccc(C#CCN(C(=O)Cc2ncc(C(F)(F)F)cc2C(F)(F)F)c2ccc(F)cc2)nn1 | 90.1
* O=C(Nc1ccc(O)c(NS(=O)(=O)c2ccc(F)cc2)c1)c1ccc(-c2ccccc2)cc1 + Cc1cccc(N(C)C(=O)C2C(O)CCN2c2nc(C)cc(C(F)(F)F)c2C#N)c1 | 105
* COc1cc2cc(C(=O)CCC(=O)O)sc2cc1OC + Nc1ccc(C#CCN(C(=O)Cc2ncc(C(F)(F)F)cc2C(F)(F)F)c2ccc(F)cc2)nn1 | 103
* Nc1ccn(C2OC(CO)C(O)C2(F)F)c(=O)n1 (stereo unspecified) + COC1C(OC(N)=O)C(O)C(Oc2ccc3c(O)c(NC(=O)c4ccc(O)c(CC=C(C)C)c4)c(=O)oc3c2C)OC1(C)C | 53.5
* CCc1cc2c(N3CCc4c(cc(Cn5ccnc5)cc4-c4cn(C)nc4C(F)(F)F)C3=O)cc(C)nc2c(OC)n1 + Nc1ccc(C#CCN(C(=O)Cc2ncc(C(F)(F)F)cc2C(F)(F)F)c2ccc(F)cc2)nn1 | 81.3
* COc1ccc([C@@H](O)c2cc(-c3ncnc4cc(N5CCOCC5)ccc34)c(F)cc2Cl)nn1 + Nc1ccc(C#CCN(C(=O)Cc2ncc(C(F)(F)F)cc2C(F)(F)F)c2ccc(F)cc2)nn1 | 65.9
* O=C(c1cc(Cc2n[nH]c(=O)c3ccccc23)ccc1F)N1CCN(C(=O)C2CC2)CC1 + Nc1ccc(C#CCN(C(=O)Cc2ncc(C(F)(F)F)cc2C(F)(F)F)c2ccc(F)cc2)nn1 | 113
* C=CC(=O)N1CCN(c2nc(=O)n(-c3c(C)ccnc3C(C)C)c3nc(-c4c(O)cccc4F)c(F)cc23)C(C)C1 (stereo unspecified) + Cc1cccc(N(C)C(=O)C2C(O)CCN2c2nc(C)cc(C(F)(F)F)c2C#N)c1 | 113
* O=c1[nH]cc(F)c(=O)[nH]1 + COC1C(OC(N)=O)C(O)C(Oc2ccc3c(O)c(NC(=O)c4ccc(O)c(CC=C(C)C)c4)c(=O)oc3c2C)OC1(C)C | 73.3
* COc1ccc([C@@H](O)c2cc(-c3ncnc4cc(N5CCOCC5)ccc34)c(F)cc2Cl)nn1 + Cc1cccc(N(C)C(=O)C2C(O)CCN2c2nc(C)cc(C(F)(F)F)c2C#N)c1 | 64.6
* C#Cc1c(F)ccc2cc(O)cc(-c3ncc4c(N5CC6CCC(C5)N6)nc(OCC56CCCN5CC(F)C6)nc4c3F)c12 (stereo unspecified) + COC1C(OC(N)=O)C(O)C(Oc2ccc3c(O)c(NC(=O)c4ccc(O)c(CC=C(C)C)c4)c(=O)oc3c2C)OC1(C)C | 71.7
* C=CC(=O)N1CCN(c2nc(=O)n(-c3c(C)ccnc3C(C)C)c3nc(-c4c(O)cccc4F)c(F)cc23)C(C)C1 (stereo unspecified) + COC1C(OC(N)=O)C(O)C(Oc2ccc3c(O)c(NC(=O)c4ccc(O)c(CC=C(C)C)c4)c(=O)oc3c2C)OC1(C)C | 102
* CNCc1ccc(-c2[nH]c3cc(F)cc4c3c2CCNC4=O)cc1 + Nc1ccc(C#CCN(C(=O)Cc2ncc(C(F)(F)F)cc2C(F)(F)F)c2ccc(F)cc2)nn1 | 101
* CNCc1ccc(-c2[nH]c3cc(F)cc4c3c2CCNC4=O)cc1 + Cc1cccc(N(C)C(=O)C2C(O)CCN2c2nc(C)cc(C(F)(F)F)c2C#N)c1 | 110
* CC1COCCN1c1cc(C2(S(C)(=N)=O)CC2)nc(-c2ccnc3[nH]ccc23)n1 (stereo unspecified) + Nc1ccc(C#CCN(C(=O)Cc2ncc(C(F)(F)F)cc2C(F)(F)F)c2ccc(F)cc2)nn1 | 38.5
* O=C(c1cc(Cc2n[nH]c(=O)c3ccccc23)ccc1F)N1CCN(C(=O)C2CC2)CC1 + Cc1cccc(N(C)C(=O)C2C(O)CCN2c2nc(C)cc(C(F)(F)F)c2C#N)c1 | 111
* CC1COCCN1c1cc(C2(O)CC3CCC(C2)O3)c2cnn(-c3ccn[nH]3)c2n1 (stereo unspecified) + Nc1ccc(C#CCN(C(=O)Cc2ncc(C(F)(F)F)cc2C(F)(F)F)c2ccc(F)cc2)nn1 | 49.6
* CCCS(=O)(=O)Nc1ccc(F)c(C(=O)c2c[nH]c3ncc(-c4ccc(Cl)cc4)cc23)c1F + Nc1ccc(C#CCN(C(=O)Cc2ncc(C(F)(F)F)cc2C(F)(F)F)c2ccc(F)cc2)nn1 | 86.6

----------
# System: 192522-019-R-J2-PDC complex tumor spheroid viability
# Assay details: Anticancer human tumor 192522-019-R-J2-PDC cell line growth inhibition [POLQ];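 note: spheroids exposed to drugs for seven days before reading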
# Applied conditions: curve of first compound; second compound 1 µM
Endpoint name: IC50 (µM)

• CC1COCCN1c1cc(C2(S(C)(=N)=O)CC2)nc(-c2ccnc3[nH]ccc23)n1 (stereo not drawn) + Nc1ccc(C#CCN(C(=O)Cc2ncc(C(F)(F)F)cc2C(F)(F)F)c2ccc(F)cc2)nn1 = 7
• CC1COCCN1c1cc(C2(O)CC3CCC(C2)O3)c2cnn(-c3ccn[nH]3)c2n1 (stereo not drawn) + Nc1ccc(C#CCN(C(=O)Cc2ncc(C(F)(F)F)cc2C(F)(F)F)c2ccc(F)cc2)nn1 = 0.276

----------
# Tested on: 192522-019-R-J2-PDC complex tumor spheroid viability
# Assay details: Anticancer human tumor 192522-019-R-J2-PDC cell line growth inhibition [POLQ];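 note: spheroids exposed to drugs for seven days before reading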;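 for viability, T/C: 100% = DMSO vehicle control viability in luminescence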
# Applied conditions: second compound 0.0316 µM; first compound 0.1 µM; stronger effect = lower value
This listing pairs compounds with measured viability, T/C.
Endpoint name: viability, T/C (%)

• CCc1cc2c(N3CCc4c(cc(Cn5ccnc5)cc4-c4cn(C)nc4C(F)(F)F)C3=O)cc(C)nc2c(OC)n1 + Cc1cccc(N(C)C(=O)C2C(O)CCN2c2nc(C)cc(C(F)(F)F)c2C#N)c1 = 91.1
• C=CCn1c(=O)c2cnc(Nc3ccc(N4CCN(C)CC4)cc3)nc2n1-c1cccc(C(C)(C)O)n1 + COC1C(OC(N)=O)C(O)C(Oc2ccc3c(O)c(NC(=O)c4ccc(O)c(CC=C(C)C)c4)c(=O)oc3c2C)OC1(C)C = 93.9
• CCc1cc2c(N3CCc4c(cc(Cn5ccnc5)cc4-c4cn(C)nc4C(F)(F)F)C3=O)ccnc2c(OC)n1 + Cc1cccc(N(C)C(=O)C2C(O)CCN2c2nc(C)cc(C(F)(F)F)c2C#N)c1 = 93.3
